- Test system: biotinyl-Ile-oxazolone
- test_method_notes: self-aminoacylation, catalytic enhancement (BIO) (fold over background); higher = more active; k-Seq, kA / k0A0; sequences stand for … in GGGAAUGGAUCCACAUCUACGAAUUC…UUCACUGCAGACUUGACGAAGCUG
This sample holds only a part of the variants without activity.
Class yes (1): self-aminoacylation at least 1. Class no (0): self-aminoacylation below 1.

construct_sequence	category
AUUACCGUGGUCAACGAGUGA [Fam2.1 aminoacylation ribozyme variant]	yes (1)

## Input Could you tell me if the measured self-aminoacylation of CUACUUCAAACAAUGUGUCUG [Fam1A.1 aminoacylation ribozyme variant] reaches 1 or more?
## Output no (0)

## Input Could you tell me if the measured self-aminoacylation of AAUCACCUAGGUAAUCGGGUG [Fam2.2 aminoacylation ribozyme variant] reaches 1 or more?
## Output yes (1)

## Input Could you tell me if the measured self-aminoacylation of AAGUUUGCUAAUAGCCGCACG [Fam3.1 aminoacylation ribozyme variant] reaches 1 or more?
## Output yes (1)

## Input Could you tell me if the measured self-aminoacylation of AAGUUUGGUAAUAGUCGCCAG [Fam3.1 aminoacylation ribozyme variant] reaches 1 or more?
## Output yes (1)

## Input Could you tell me if the measured self-aminoacylation of CCAGAUUUCAAGCAAUCGGUC [Fam1B.1 aminoacylation ribozyme variant] reaches 1 or more?
## Output yes (1)

## Input Could you tell me if the measured self-aminoacylation of AUUACCCUGGUCAUCGGGUGC [Fam2.1 aminoacylation ribozyme variant] reaches 1 or more?
## Output yes (1)

## Input Could you tell me if the measured self-aminoacylation of CCACACUUCUAACAAUCGGUC [Fam1B.1 aminoacylation ribozyme variant] reaches 1 or more?
## Output no (0)

## Input Could you tell me if the measured self-aminoacylation of AUUACCCCGGUCAUCGCGUGA [Fam2.1 aminoacylation ribozyme variant] reaches 1 or more?
## Output yes (1)

###

- Tested on: biotinyl-Trp-oxazolone
- test_method_notes: self-aminoacylation, catalytic enhancement (BWO) (fold over background); higher = more active; k-Seq, kA / k0A0; sequences stand for … in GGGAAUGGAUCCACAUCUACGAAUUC…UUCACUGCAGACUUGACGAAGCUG
Variants at the floor of the assay were thinned out.
assay_readout: self-aminoacylation
The reply should be a number, written without any unit.

Recorded result, CCCCACUUCAAGCAAUCCGUC [Fam1B.1 aminoacylation ribozyme variant] , self-aminoacylation: 2.64

Recorded result, AAGUUAGCUAAUAGUCGCCAG [Fam3.1 aminoacylation ribozyme variant] , self-aminoacylation: 3.82

###

- Test system: biotinyl-Ile-oxazolone
- test_method_notes: self-aminoacylation, catalytic enhancement (BIO) (fold over background); higher = more active; k-Seq, kA / k0A0; sequences stand for … in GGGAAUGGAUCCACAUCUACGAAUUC…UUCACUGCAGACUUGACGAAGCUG
Fewer inactive variants are shown than the library holds.
Class True: self-aminoacylation at least 1. Class False: self-aminoacylation below 1.

These solved cases illustrate the format of a correct answer.
construct_sequence	category
AGUCACCUAGGUCCUCGGGUG [Fam2.2 aminoacylation ribozyme variant]	True
AUUCACCUAGGUCAUCGGAUA [Fam2.2 aminoacylation ribozyme variant]	False
UUUCACCUGGGUCAUCGGGUG [Fam2.2 aminoacylation ribozyme variant]	True
AAUCACCUAGGUCAUCGGUUG [Fam2.2 aminoacylation ribozyme variant]	True

## Input Could you tell me if the measured self-aminoacylation of AAGUUUGCUAAUAAUCACAAG [Fam3.1 aminoacylation ribozyme variant] reaches 1 or more?
## Output True

###

- Tested on: biotinyl-Phe-oxazolone
- test_method_notes: self-aminoacylation, catalytic enhancement (BFO) (fold over background); higher = more active; k-Seq, kA / k0A0; sequences stand for … in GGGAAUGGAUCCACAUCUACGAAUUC…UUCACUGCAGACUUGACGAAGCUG
This sample holds only a part of the variants without activity.
assay_readout: self-aminoacylation
The reply should be a number, written without any unit.

construct_sequence	self-aminoacylation
CCUCACUUCAAGCAAUCGGUU [Fam1B.1 aminoacylation ribozyme variant]	9.36
CUACUUCAAACAAUCGGCCUC [Fam1A.1 aminoacylation ribozyme variant]	11.8
AGGCACCUAGGUCAUCGGGUG [Fam2.2 aminoacylation ribozyme variant]	17
AUUACCCUGGUCAACGAGUGC [Fam2.1 aminoacylation ribozyme variant]	0.478
AGUACCCUGGUCAUCGACUGA [Fam2.1 aminoacylation ribozyme variant]	0.572

self-aminoacylation for biotinyl-Phe-oxazolone with input AUUCACCUAGGCCAGCGGGUG [Fam2.2 aminoacylation ribozyme variant] equals 24.8

self-aminoacylation for biotinyl-Phe-oxazolone with input AUUCACCAAGGUCAUCGCGUG [Fam2.2 aminoacylation ribozyme variant] equals 132

###

- System: biotinyl-Phe-oxazolone
- test_method_notes: self-aminoacylation, catalytic enhancement (BFO) (fold over background); higher = more active; k-Seq, kA / k0A0; sequences stand for … in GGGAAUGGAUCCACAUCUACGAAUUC…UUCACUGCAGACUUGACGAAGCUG
This sample holds only a part of the variants without activity.
Class class 1: self-aminoacylation at least 5. Class class 0: self-aminoacylation below 5.

These solved cases illustrate the format of a correct answer.
construct_sequence	category
AAGUUUGCUAAUAGUCUCCAG [Fam3.1 aminoacylation ribozyme variant]	class 0
AUUACCCAGGUCCUCGAGUGA [Fam2.1 aminoacylation ribozyme variant]	class 1

## Input Could you tell me if the measured self-aminoacylation of CCACACUUCAUGCAAUCGGUA [Fam1B.1 aminoacylation ribozyme variant] reaches 5 or more?
## Output class 0

## Input Could you tell me if the measured self-aminoacylation of AAGUUUGCUUAUAGUCGCGAG [Fam3.1 aminoacylation ribozyme variant] reaches 5 or more?
## Output class 0

## Input Could you tell me if the measured self-aminoacylation of AAGUUUGCUAAAAGUCGCAUG [Fam3.1 aminoacylation ribozyme variant] reaches 5 or more?
## Output class 0

## Input Could you tell me if the measured self-aminoacylation of AUUAAACUAGGUCAUCGGGUG [Fam2.2 aminoacylation ribozyme variant] reaches 5 or more?
## Output class 1

## Input Could you tell me if the measured self-aminoacylation of AUUCUCCUAGGUCAACGGGUG [Fam2.2 aminoacylation ribozyme variant] reaches 5 or more?
## Output class 1

###

- System: biotinyl-Ile-oxazolone
- test_method_notes: self-aminoacylation, catalytic enhancement (BIO) (fold over background); higher = more active; k-Seq, kA / k0A0; sequences stand for … in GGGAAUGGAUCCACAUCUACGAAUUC…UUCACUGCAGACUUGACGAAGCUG
This sample holds only a part of the variants without activity.
The entries below are paired with their reported self-aminoacylation.

In the examples that follow, each entry is paired with its recorded self-aminoacylation.
construct_sequence	self-aminoacylation
AGUCAGCUAGGUCAUCGGGUG [Fam2.2 aminoacylation ribozyme variant]	5.42
CUACUUCAUACAAUCGAUCUG [Fam1A.1 aminoacylation ribozyme variant]	0.657
UCACACUUCAUGCAAUCGGUC [Fam1B.1 aminoacylation ribozyme variant]	0.85

Next sequence, please.
Recorded result, AUACACCUAGCUCAUCGGGUG [Fam2.2 aminoacylation ribozyme variant] , self-aminoacylation: 1.9

###

- Test system: biotinyl-Leu-oxazolone
- test_method_notes: self-aminoacylation, catalytic enhancement (BLO) (fold over background); higher = more active; k-Seq, kA / k0A0; sequences stand for … in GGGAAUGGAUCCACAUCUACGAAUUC…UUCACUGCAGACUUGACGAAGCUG
Fewer inactive variants are shown than the library holds.
The entries below are paired with their reported self-aminoacylation.
The reply should be a number, written without any unit.

construct_sequence	quantitative_readout
CCACACUUCAAGCAAUCAGUG [Fam1B.1 aminoacylation ribozyme variant]	4.36

Recorded result, AAGUUUGCCAAUAGUCGAAAG [Fam3.1 aminoacylation ribozyme variant] , self-aminoacylation: 0.911

Recorded result, AUCACCCUGGUGAUCGAGUGA [Fam2.1 aminoacylation ribozyme variant] , self-aminoacylation: 8.91

Recorded result, AUGCACCUAGGUCGUCGGGUG [Fam2.2 aminoacylation ribozyme variant] , self-aminoacylation: 2.42

Recorded result, AUUACCGUGCUCAUCGAGUGA [Fam2.1 aminoacylation ribozyme variant] , self-aminoacylation: 2.64

###

The entries below are paired with their reported self-aminoacylation.
- Tested on: biotinyl-Ile-oxazolone
- test_method_notes: self-aminoacylation, catalytic enhancement (BIO) (fold over background); higher = more active; k-Seq, kA / k0A0; sequences stand for … in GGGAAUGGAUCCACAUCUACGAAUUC…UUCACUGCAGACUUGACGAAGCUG
Fewer inactive variants are shown than the library holds.
The reply should be a number, written without any unit.

self-aminoacylation for biotinyl-Ile-oxazolone with input AUUACGCUGGUCUUCGAGUGA [Fam2.1 aminoacylation ribozyme variant] equals 3.35

self-aminoacylation for biotinyl-Ile-oxazolone with input AUUACCCUGGUCAUUGAGCGA [Fam2.1 aminoacylation ribozyme variant] equals 1.45

self-aminoacylation for biotinyl-Ile-oxazolone with input UAGUUUGCUGAUAGUCGCAAG [Fam3.1 aminoacylation ribozyme variant] equals 1.61

self-aminoacylation for biotinyl-Ile-oxazolone with input AGUACCCUGGUCAUCGCGUGA [Fam2.1 aminoacylation ribozyme variant] equals 8.36

self-aminoacylation for biotinyl-Ile-oxazolone with input CCACCCUUUAAGCAAUCGGUC [Fam1B.1 aminoacylation ribozyme variant] equals 1.16
